Origin of the recorded values: patent US20240360227A1

Consider the following binders and their measured Kd readings.
MEASURED_TARGET: Recombinant human his-tagged IGF R extracellular domain protein (human) (UniProt P08069)
TEST_NAME: SPR, Ab captured via anti-huIgG Fc, pH 7.4
// return numeric value only (unit: nM, not printed)

Some entries whose results are on file:
INSERT INTO measurements (binder, property_name, recorded_number) VALUES
  ('VRDN-02045 (antibody, V domains shown) VH: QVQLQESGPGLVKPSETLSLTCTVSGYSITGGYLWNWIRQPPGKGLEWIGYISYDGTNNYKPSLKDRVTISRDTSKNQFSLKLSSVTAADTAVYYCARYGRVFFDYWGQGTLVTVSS VL: DIVMTQSPLSLPVTPGEPASISCRSSQSIVHSNGNTYLQWYLQKPGQSPQLLIYKHSNRLYGVPDRFSGSGSGTDFTLKISRVEAEDVGVYYCFQGSHVPWTFGQGTKVEIK', 'Kd', 1.1),
  ('VRDN-02017 (antibody, V domains shown) VH: QVQLQESGPGLVKPSETLSLTCTVSGYSITGGYLWNWIRQPPGKGLEWIGYISYDHTNNYKPSLKDRVTISRDTSKNQFSLKLSSVTAADTAVYYCARYGRVFFDYWGQGTLVTVSS VL: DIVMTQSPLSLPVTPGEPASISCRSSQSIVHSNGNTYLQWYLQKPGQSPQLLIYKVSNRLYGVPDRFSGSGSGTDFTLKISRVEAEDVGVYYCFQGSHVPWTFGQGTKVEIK', 'Kd', 1.22),
  ('VRDN-02041 (antibody, V domains shown) VH: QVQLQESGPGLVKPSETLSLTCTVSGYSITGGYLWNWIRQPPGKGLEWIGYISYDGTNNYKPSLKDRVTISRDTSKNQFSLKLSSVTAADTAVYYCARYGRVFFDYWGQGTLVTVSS VL: DIVMTQSPLSLPVTPGEPASISCRSSQSIVHSNGNTHLQWYLQKPGQSPQLLIYKVSNRLYGVPDRFSGSGSGTDFTLKISRVEAEDVGVYYCFQGSHVPWTFGQGTKVEIK', 'Kd', 0.795);

For the next question, use this binder.
[Q] Value lookup for Kd; key = VRDN-02004 (antibody, V domains shown) VH: QVQLQESGPGLVKPSETLSLTCTVSGYSHTGGYLWNWIRQPPGKGLEWIGYISYDGTNNYKPSLKDRVTISRDTSKNQFSLKLSSVTAADTAVYYCARYGRVFFDYWGQGTLVTVSS VL: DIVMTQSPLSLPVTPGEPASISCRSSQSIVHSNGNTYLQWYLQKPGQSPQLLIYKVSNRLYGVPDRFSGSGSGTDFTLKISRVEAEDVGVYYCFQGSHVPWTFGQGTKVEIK
[A] 7.78
